protocol.summary: Primary qHTS for delayed death inhibitors of the malarial parasite plastid, 96 hour incubation
condition: P. falciparum luciferase reporter growth; series mostly up to 28.7 µM
The campaign covered roughly 320,000 compounds. About 22,000 (6.9%) were called active. Inconclusive results (about 27%) are left out. Calls come from the whole dose curve; as a rule, active = well fitted inhibition curve with a large enough effect; inconclusive = small, poorly fitted or top-dose-only effect, or another doubt; inactive = no such curve, though single readings can be large or run the other way. The list comes from a sample in which actives are over-represented; it also holds close analogues and randomly drawn compounds.
Please state which outcome applies, choosing from yes (1) (active), no (0) (inactive)

Challenge: Which result was noted for this compound in the test: COc1ccccc1NC(=O)CSc1nnc(Cc2cccn2C)n1-c1ccc(F)cc1
Response given: no (0)

Challenge: Could you check what this test reported for COc1ccc(C(=O)Nc2ccc(C(=O)NCC3CCCO3)cc2)c(OC)c1OC (stereo not given) ?
Response given: no (0)

Challenge: How was COc1ccccc1NC(=O)CSc1nc2sc(C)c(C)c2c(=O)n1Cc1ccco1 classified in this test?
Response given: no (0)

Challenge: Per the assay record, what outcome was assigned to O=C(O)c1ccccc1C(=O)NC1=NN(c2ccccc2)CC1 ?
Response given: no (0)

Challenge: Which outcome was assigned to CCCn1c(N)c(C(=O)CSc2nc3ccccc3c(=O)n2-c2ccc(OC)cc2)c(=O)[nH]c1=O in this test?
Response given: no (0)

Challenge: What did the test return for CCCSc1nc2sc3c(c2c(=O)n1-c1ccc(OC)cc1)CCN(C)C3 ?
Response given: yes (1)

Challenge: So what was the verdict on COc1ccccc1-n1c(SCC(=O)O)nc2sc3c(c2c1=O)CCC3 in this test?
Response given: no (0)

Challenge: Called result for CCOc1ccc(-n2c(SCC(=O)NC3CCS(=O)(=O)C3)nnc2-c2cccnc2)cc1 (stereo not given)
Response given: no (0)

Challenge: What outcome does the record of this test show for COc1ccccc1NC(=O)CSc1nc2sc3c(c2c(=O)n1-c1ccccc1)CCN(C)C3 ?
Response given: yes (1)

Challenge: Outcome? COc1cccc(C(=O)NNC(=O)/C=C/c2ccccc2)c1
Response given: no (0)
